Overview of reported AUC(0-t) across a group of molecules:
assay: Pharmacokinetic profiles in rats; assay type: in vivo; conditions: rat, plasma, iv dosing, 1 mg/kg
measurementName: AUC(0-t) (ng·h/mL)

INSERT INTO assay_data (entrysmiles, valuemeasured) VALUES
  ('COc1ncc(-c2ccn3ncc(C#CC(C)(C)O)c3n2)cc1NS(=O)(=O)c1ccc(F)cc1F', 40900),
  ('COc1ncc(-c2ccn3ncc(C#N)c3c2)cc1NS(=O)(=O)CC(F)(F)F', 1240),
  ('CC#Cc1cnn2ccc(-c3cnc(OC)c(NS(=O)(=O)c4ccc(F)cc4F)c3)nc12', 5330),
  ('COc1ncc(-c2ccn3ncc(C#CC(C)(C)O)c3c2)cc1NS(=O)(=O)c1ccc(F)cc1F', 41800);
